target.of.assay: Protein cereblon/Signal transducer and activator of transcription 3 (Mus musculus) (UniProt P42227+Q8C7D2)
Sequence (P42227 whole entry, looked up): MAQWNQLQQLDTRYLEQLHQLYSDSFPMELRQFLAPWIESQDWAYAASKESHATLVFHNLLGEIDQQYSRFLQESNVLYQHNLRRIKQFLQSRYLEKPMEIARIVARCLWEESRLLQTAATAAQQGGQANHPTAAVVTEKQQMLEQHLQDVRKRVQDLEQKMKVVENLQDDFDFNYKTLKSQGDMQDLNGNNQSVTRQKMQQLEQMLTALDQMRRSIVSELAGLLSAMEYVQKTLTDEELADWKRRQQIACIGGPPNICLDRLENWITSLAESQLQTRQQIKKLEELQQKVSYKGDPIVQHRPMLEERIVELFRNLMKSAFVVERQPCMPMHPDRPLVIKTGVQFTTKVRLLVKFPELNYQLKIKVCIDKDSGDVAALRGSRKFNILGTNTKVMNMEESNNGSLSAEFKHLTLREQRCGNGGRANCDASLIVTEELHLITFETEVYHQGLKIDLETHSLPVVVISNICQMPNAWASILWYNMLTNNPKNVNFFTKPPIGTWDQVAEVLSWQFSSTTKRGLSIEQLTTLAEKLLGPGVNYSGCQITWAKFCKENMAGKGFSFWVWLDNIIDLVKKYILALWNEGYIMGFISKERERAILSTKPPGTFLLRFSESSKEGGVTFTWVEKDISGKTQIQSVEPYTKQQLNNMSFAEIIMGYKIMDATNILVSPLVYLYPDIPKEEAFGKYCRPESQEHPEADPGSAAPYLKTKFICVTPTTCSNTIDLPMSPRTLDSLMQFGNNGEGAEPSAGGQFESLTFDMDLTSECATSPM
Sequence (Q8C7D2 whole entry, looked up): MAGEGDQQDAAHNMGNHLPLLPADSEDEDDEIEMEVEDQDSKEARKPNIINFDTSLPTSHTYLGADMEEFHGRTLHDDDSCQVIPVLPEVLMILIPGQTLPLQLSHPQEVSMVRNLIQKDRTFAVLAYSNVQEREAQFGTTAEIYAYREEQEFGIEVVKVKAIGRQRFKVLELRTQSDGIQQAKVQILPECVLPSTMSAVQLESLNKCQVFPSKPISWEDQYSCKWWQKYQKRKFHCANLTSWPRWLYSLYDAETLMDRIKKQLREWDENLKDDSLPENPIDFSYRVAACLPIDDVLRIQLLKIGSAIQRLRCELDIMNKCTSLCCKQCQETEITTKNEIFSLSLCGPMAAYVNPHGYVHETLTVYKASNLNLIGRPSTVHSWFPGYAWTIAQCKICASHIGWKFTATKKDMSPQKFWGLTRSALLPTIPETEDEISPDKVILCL
assay.overview: In-vivo PROTAC activity at STAT3/CRBN in female CB17 SCID mouse assessed as reduction STAT3 level spleen at 10 mg/kg, iv measured at 24 hrs by Western blot analysis
Format: functional, organism-based
Parameters: scale not given: the % may be the effect or the level left
Known Activity of a selection of molecules

Some molecules with known Activity results, for comparison:
| molecule | Activity |
| --- | --- |
| CC(C)N1CC[C@H]2CC[C@@H](C(=O)N[C@@H](CCC(N)=O)C(=O)N[C@@H](Cc3ccc(F)c(F)c3)C(=O)N3CCC(CCC#Cc4cccc5c4CN(C4CCC(=O)NC4=O)C5=O)CC3)N2C(=O)[C@@H](NC(=O)c2cc3cc(C(F)(F)P(=O)(O)O)ccc3s2)C1 (some centres undefined) | > 90% |
| CC(=O)N1CC[C@H]2CC[C@@H](C(=O)N[C@@H](CCC(N)=O)C(=O)N[C@@H](Cc3ccc(F)c(F)c3)C(=O)N3CCC(CCC#Cc4cccc5c4CN(C4CCC(=O)NC4=O)C5=O)CC3)N2C(=O)[C@@H](NC(=O)c2cc3cc(C(F)(F)P(=O)(O)O)ccc3s2)C1 (some centres undefined) | > 90% |

Now consider a different molecule.
Quick one: Activity for CCN1CC[C@H]2CC[C@@H](C(=O)N[C@@H](CCC(N)=O)C(=O)N[C@@H](Cc3ccc(F)c(F)c3)C(=O)N3CCC(CCC#Cc4cccc5c4CN(C4CCC(=O)NC4=O)C5=O)CC3)N2C(=O)[C@@H](NC(=O)c2cc3cc(C(F)(F)P(=O)(O)O)ccc3s2)C1 (some centres undefined) ?
80%

* * *

assay.overview: Stability in mouse plasma assessed as parent compound remaining at […]
Format: ADME, cell-free
measurement.setup: read-out: Stability
reported.property: remaining at 2 h (%)
Report the figure in % without appending any unit label.

Quick one: remaining at 2 h for COC(=O)N1CC[C@H]2CC[C@@H](C(=O)N[C@@H](CCC(N)=O)C(=O)N[C@@H](Cc3ccc(F)c(F)c3)C(=O)N3CCC(CCC#Cc4cccc5c4CN(C4CCC(=O)NC4=O)C5=O)CC3)N2C(=O)[C@@H](NC(=O)c2cc3cc(C(F)(F)P(=O)(O)O)ccc3s2)C1 (stereo partly specified) ?
101

* * *

assay.overview: Drug concentration in female CB17 SCID mouse liver at 5 mg/kg, iv measured at 24 hrs by LC-MS/MS analysis
Type: ADME, organism-based
measurement.setup: read-out: Ct
reported.property: concentration at 24 h (ng/g)
Report the figure in ng/g without appending any unit label.

Quick one: concentration at 24 h for COC(=O)N1CC[C@H]2CC[C@@H](C(=O)N[C@@H](CCC(N)=O)C(=O)N[C@@H](Cc3ccc(F)c(F)c3)C(=O)N3CCC(CCC#Cc4cccc5c4CN(C4CCC(=O)NC4=O)C5=O)CC3)N2C(=O)[C@@H](NC(=O)c2cc3cc(C(F)(F)P(=O)(O)O)ccc3s2)C1 (stereo partly specified) ?
1250

* * *

assay.overview: Stability in Non human primate plasma assessed as parent compound remaining at […]
Type: ADME, cell-free
measurement.setup: read-out: Stability
reported.property: remaining at 2 h (%)
Report the figure in % without appending any unit label.

Quick one: remaining at 2 h for COC(=O)N1CC[C@H]2CC[C@@H](C(=O)N[C@@H](CCC(N)=O)C(=O)N[C@@H](Cc3ccc(F)c(F)c3)C(=O)N3CCC(CCC#Cc4cccc5c4CN(C4CCC(=O)NC4=O)C5=O)CC3)N2C(=O)[C@@H](NC(=O)c2cc3cc(C(F)(F)P(=O)(O)O)ccc3s2)C1 (stereo partly specified) ?
101
